# assayOverview: CCTE_Shafer_MEA_acute_cross_correlation_HWHM: CCTE's Neural Acute Assay for Cross Correlation at Half Width at Half Maximum, Shafer Lab (AID 2284026);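 further: percent change per well from pre-dose baseline in spike cross-correlogram half width; hits are a decrease in cross-correlogram half width relative to DMSO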
Active and inactive are the calls of the source. How the source made its calls: active means hit-call score of the fitted dose curve at least 0.9, where 1 is the maximum; inactive means score below 0.9.
readoutName: AC50

> print(dat)
                                   compound       measvalue
1                              Oc1ccc(O)cc1        inactive
2  O=C1OC(c2ccc(O)cc2)(c2ccc(O)cc2)c2ccccc21        inactive
3  CN(C)C(=O)NC1(c2ccccc2)CCN(CC[C@@]2(c3ccc(F)c(F)c3)CN(C(=O)c3ccccc3)CCO2)CC1  20 µM (active)
4                             c1ccc2occc2c1        inactive
5              CC(C)COC(=O)CCCCC(=O)OCC(C)C        inactive

// each listed compound needs a value for AC50
1. CN(C)C(=O)NC1(c2ccccc2)CCN(CCC[C@]2(c3ccc(Cl)c(Cl)c3)CCCN(C(=O)c3ccccc3)C2)CC1
2. O=C(O)CN(CC(=O)O)CC(=O)O
3. Cc1ccc(-c2cc(C(F)(F)F)nn2-c2ccc(S(N)(=O)=O)cc2)cc1
4. Cc1c(C)c2c(c(C)c1O)CCC(C)(COc1ccc(CC3SC(=O)NC3=O)cc1)O2 (stereo unspecified)

1: 8.86 µM (active); 2: inactive; 3: 20 µM (active); 4: 29.7 µM (active)

Below are some compounds; for each one, tell me its AC50.
1. CC(C)NCC(O)c1ccc(O)c(O)c1 (stereo unspecified)
2. CN(C)CCCN1c2ccccc2Sc2ccc(Cl)cc21
3. CCc1cc(C2=C(C(=O)O)N(c3ccccc3C(F)(F)F)S(=O)(=O)c3ccccc32)cc2c1OCO2

["inactive", "31.5 µM (active)", "inactive"]

For every listed record, write down its AC50.
1. CC1=C(C)S(=O)(=O)CCS1(=O)=O
2. C/C=C/c1ccc(OC)cc1

1: inactive; 2: inactive

Would you mind giving AC50 for every compound in the list below?
1. NC(=Nc1ccccc1)Nc1ccccc1
2. COc1ccc(OC(F)(F)F)cc1CN[C@H]1CCCN[C@H]1c1ccccc1
3. CCCCC(CC)COP(=O)(OCC(CC)CCCC)OCC(CC)CCCC (stereo unspecified)
4. COC(=O)[C@H]1[C@H]2C[C@@H]3c4[nH]c5cc(OC)ccc5c4CCN3C[C@H]2C[C@@H](OC(=O)c2cc(OC)c(OC)c(OC)c2)[C@@H]1OC
5. CCCC(=O)O
6. Nc1nc(=S)c2[nH]cnc2[nH]1
7. O=C(N[C@@H](c1ccccc1)[C@@H]1CCCCN1)c1cccc(C(F)(F)F)c1Cl

1. 20 µM (active)
2. 3.09 µM (active)
3. inactive
4. 20 µM (active)
5. inactive
6. 32.2 µM (active)
7. 9.13 µM (active)

====

# targetOfAssay: human Leukotriene B4 Receptor 1 (LTB4-BLT1), LTB4R (gene 1241)
# assayOverview: NVS_GPCR_hLTB4_BLT1: NovaScreen (NVS) G Protein-Coupled Receptor Assay for human Leukotriene B4 Receptor 1 (LTB4-BLT1) (AID 2283271)
Results filed as inconclusive are left out. Calls of active or inactive are those of the source. How the source made its calls: active means hit-call score of the fitted dose curve at least 0.9, where 1 is the maximum; inconclusive means response in the unintended direction; inactive means score below 0.9.
Classes to choose from: YES for active, NO for inactive

> print(dat)
                                   molecule  label
1                CC(=O)OCC(COC(C)=O)OC(C)=O    YES
2           CCCCC(CC)CO (centres undefined)     NO
3  CSc1ccc(Oc2ccc(S(N)(=O)=O)cc2CN(C)C)cc1C     NO

Just curious, what result did CCc1cc(C2=C(C(=O)O)N(c3ccccc3C(F)(F)F)S(=O)(=O)c3ccccc32)cc2c1OCO2 get here?
YES

====

# assayOverview: BSK_3C_uPAR: BioMAP Diversity Plus: 3C Assay for Urokinase-type plasminogen activator receptor (uPAR) Biomarker Activity (AID 2282998)
# particulars: BioMAP 3C HUVEC, uPAR biomarker ELISA; actives raise or lower the signal
Calls of active or inactive are those of the source. The calls were made as follows: active = hit-call score of the fitted dose curve at least 0.9, where 1 is the maximum; inactive = score below 0.9.
Result category, one only: yes (1) (active), no (0) (inactive)

> print(dat)
                                   compound    label
1  O=C(NS(=O)(=O)/C=C/c1cccs1)c1ccc(F)cc1Br   no (0)
2                      CN(C)CCCN(C)CCCN(C)C   no (0)
3                    CCCCCCC(C=O)=Cc1ccccc1  yes (1)

Which outcome did this test record for the compound CN(C)CCCN1c2ccccc2Sc2ccc(Cl)cc21 ?
yes (1)

Assay result, entry O=C(O)c1[nH]n(-c2ccc(S(=O)(=O)O)cc2)c(=O)c1N=Nc1ccc(S(=O)(=O)O)cc1 — outcome?
no (0)

Hi, sorry to bother you, what did the test record for CCCCCCC(CCCCCCCCCCC(=O)OCC(COC(C)=O)OC(C)=O)OC(C)=O (stereo not given) ?
no (0)

For this compound, state the assay outcome: O=Cc1ccccc1C=O
no (0)

# fetch the recorded call for NC=O here
no (0)

Recorded call for CCC(C)N(C)C(=O)c1cc2ccccc2c(-c2ccccc2Cl)n1 (stereo not given) ?
no (0)

Which result was noted for this compound in the test: Oc1ccc(O)cc1
no (0)

// param item: O=NO ; yields the recorded call
no (0)

State the result this test recorded for Nc1nc(Cl)nc2c1ncn2[C@H]1C[C@H](O)[C@@H](CO)O1 .
no (0)

How was NC1CCCCC1 classified in this test?
no (0)

Please share the test call associated with CC(=O)O[C@]1(C(C)=O)CC[C@H]2[C@@H]3C=C(Cl)C4=CC(=O)[C@@H]5C[C@@H]5[C@]4(C)[C@H]3CC[C@@]21C .
no (0)

Please let me know the test result on file for Cc1c(C)c2c(c(C)c1O)CCC(C)(COc1ccc(CC3SC(=O)NC3=O)cc1)O2 (stereo not given) .
yes (1)

What classification did O=C1O[C@H]([C@H](O)CO)C(O)=C1O end up with in this test?
no (0)

# fetch the recorded call for CCCCC(CC)COP(=O)(OCC(CC)CCCC)OCC(CC)CCCC (stereo not given) here
yes (1)

Lab log entry: COC(=O)[C@H]1[C@H]2C[C@@H]3c4[nH]c5cc(OC)ccc5c4CCN3C[C@H]2C[C@@H](OC(=O)c2cc(OC)c(OC)c(OC)c2)[C@@H]1OC — outcome as called in the assay?
yes (1)

====

# assayOverview: BSK_4H_Eotaxin3: BioMAP Diversity Plus: 4H Assay for Eotaxin 3 Biomarker Activity (AID 2283000);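 further: CCL26 protein level quantified by ELISA in parallel with SRB cytotoxicity check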
# particulars: primary human endothelial cells (HUVEC); actives raise or lower the signal
The source made the active and inactive calls. The calls were made as follows: active = hit-call score of the fitted dose curve at least 0.9, where 1 is the maximum; inactive = score below 0.9.
Outcomes you can answer with include only these: active, inactive

# fetch the recorded call for COC(=O)CCC(=O)OC here
inactive

Give the logged outcome of this assay for the following molecule: CCCCCCCCCCCCCCOS(=O)(=O)O
inactive

====

# Read-out: Glutathione S-Transferase (GSTA2), GSTA2 (gene 2939)
# assayOverview: LTEA_HepaRG_GSTA2: Life Technologies and Expression Analysis (LTEA) Assay for Glutathione S-Transferase (GSTA2) using HepaRG (AID 2283497)
# particulars: mRNA level, 48 h; actives raise or lower the signal
Active and inactive are the calls of the source. How the source made its calls: active means hit-call score of the fitted dose curve at least 0.9, where 1 is the maximum; inactive means score below 0.9.
readoutName: AC50

Completed entries (count: 5):
> print(dat)
                                   compound  readoutname          measvalue
1                           C=CCCCCCCCCCCCC         AC50           inactive
2                                O=C1CCCCC1         AC50           inactive
3  O=C(O)c1[nH]n(-c2ccc(S(=O)(=O)O)cc2)c(=O)c1N=Nc1ccc(S(=O)(=O)O)cc1         AC50           inactive
4  CC(C)NCC(O)c1ccc(O)c(O)c1 (stereo not drawn)         AC50  0.222 µM (active)
5                    CCCCCCC(C=O)=Cc1ccccc1         AC50           inactive

Could I get AC50 for every one of these entries?
1. CCCC[C@H]1CN(CC2CCOCC2)C(=O)OC12CCN(C1(C)CCN(C(=O)c3c(C)ncnc3C)CC1)CC2
2. CC(=O)CC(c1ccccc1)c1c(O)c2ccccc2oc1=O (stereo not drawn)
3. COC(=O)[C@H]1[C@H]2C[C@@H]3c4[nH]c5cc(OC)ccc5c4CCN3C[C@H]2C[C@@H](OC(=O)c2cc(OC)c(OC)c(OC)c2)[C@@H]1OC
4. O=NO
5. CCCCc1nc2cccnc2n1Cc1ccc(-c2ccccc2-c2nnn[nH]2)cc1
6. Cc1ccc(C(C)(C)C)c(O)c1
7. CCCC(=O)O
8. CCN(CC)CCOc1ccc(C(=C(Cl)c2ccccc2)c2ccccc2)cc1

1: inactive; 2: inactive; 3: 60.1 µM (active); 4: inactive; 5: inactive; 6: inactive; 7: inactive; 8: 78.6 µM (active)

Okay, here is my list. What is AC50 for each of these?
1. CCc1cc(C2=C(C(=O)O)N(c3ccccc3C(F)(F)F)S(=O)(=O)c3ccccc32)cc2c1OCO2
2. CC(=O)S[C@H](C(=O)N[C@H]1Cc2ccccc2[C@H]2CCC[C@@H](C(=O)O)N2C1=O)C(C)C
3. OCC(O)CO

["78.8 µM (active)", "inactive", "inactive"]
